Data credit: patent EP2906547B2

- assay_explanation: Solubility of baicalin in water as a function of pH
- Assay type: physicochemical
- run_conditions: water, pH 4.5, water, in water, pH 4.5; read-out: Solubility
quantity_measured: solubility
Form entry: enter the amount, then its unit.

Input: solubility lookup needed for O=C(O)[C@H]1O[C@@H](Oc2cc3oc(-c4ccccc4)cc(=O)c3c(O)c2O)[C@H](O)[C@@H](O)[C@@H]1O , thanks.
Output: 84 µg/mL

====

- assay_explanation: physchem
- run_conditions: water
quantity_measured: solubility thermodynamic

Solved entries:
INSERT INTO measurements (structure_as_smiles, quantity_measured, recorded_result) VALUES
  ('Oc1ccc(C=Cc2cc(O)cc(O)c2)cc1', 'solubility thermodynamic', '< 50 µg/mL'),
  ('O=c1oc2c(O)c(O)cc3c(=O)oc4c(O)c(O)cc1c4c23', 'solubility thermodynamic', '< 10 µg/mL'),
  ('O=C(O)[C@H]1O[C@@H](Oc2cc3oc(-c4ccccc4)cc(=O)c3c(O)c2O)[C@H](O)[C@@H](O)[C@@H]1O', 'solubility thermodynamic', '< 100 µg/mL');

# ---- query compound ----
Input: Any idea what its solubility thermodynamic is? The compound is O=C1c2c(O)cc(O)cc2O[C@H](c2ccc(O)c(O)c2)[C@H]1O
Output: < 1000 µg/mL
